Molecular target: T1, hLTBP1-proTGFβ1 (human, UniProt Q14766 347-1721; P01137 30-390, limits assumed)
T1 construct: Large latent complex (LLC): proTGFβ1 dimer disulfide-linked to one presenting molecule; recombinant, purified, biotinylated in BLI/SPR; The same id is used for the complex made by transfected cells in the reporter assays; also called human LTBP1-proTGFβ1 complex; LTBP1-ProTGFb1
T1 sequence (Q14766 347-1721 limits assumed, chain 1 of 2): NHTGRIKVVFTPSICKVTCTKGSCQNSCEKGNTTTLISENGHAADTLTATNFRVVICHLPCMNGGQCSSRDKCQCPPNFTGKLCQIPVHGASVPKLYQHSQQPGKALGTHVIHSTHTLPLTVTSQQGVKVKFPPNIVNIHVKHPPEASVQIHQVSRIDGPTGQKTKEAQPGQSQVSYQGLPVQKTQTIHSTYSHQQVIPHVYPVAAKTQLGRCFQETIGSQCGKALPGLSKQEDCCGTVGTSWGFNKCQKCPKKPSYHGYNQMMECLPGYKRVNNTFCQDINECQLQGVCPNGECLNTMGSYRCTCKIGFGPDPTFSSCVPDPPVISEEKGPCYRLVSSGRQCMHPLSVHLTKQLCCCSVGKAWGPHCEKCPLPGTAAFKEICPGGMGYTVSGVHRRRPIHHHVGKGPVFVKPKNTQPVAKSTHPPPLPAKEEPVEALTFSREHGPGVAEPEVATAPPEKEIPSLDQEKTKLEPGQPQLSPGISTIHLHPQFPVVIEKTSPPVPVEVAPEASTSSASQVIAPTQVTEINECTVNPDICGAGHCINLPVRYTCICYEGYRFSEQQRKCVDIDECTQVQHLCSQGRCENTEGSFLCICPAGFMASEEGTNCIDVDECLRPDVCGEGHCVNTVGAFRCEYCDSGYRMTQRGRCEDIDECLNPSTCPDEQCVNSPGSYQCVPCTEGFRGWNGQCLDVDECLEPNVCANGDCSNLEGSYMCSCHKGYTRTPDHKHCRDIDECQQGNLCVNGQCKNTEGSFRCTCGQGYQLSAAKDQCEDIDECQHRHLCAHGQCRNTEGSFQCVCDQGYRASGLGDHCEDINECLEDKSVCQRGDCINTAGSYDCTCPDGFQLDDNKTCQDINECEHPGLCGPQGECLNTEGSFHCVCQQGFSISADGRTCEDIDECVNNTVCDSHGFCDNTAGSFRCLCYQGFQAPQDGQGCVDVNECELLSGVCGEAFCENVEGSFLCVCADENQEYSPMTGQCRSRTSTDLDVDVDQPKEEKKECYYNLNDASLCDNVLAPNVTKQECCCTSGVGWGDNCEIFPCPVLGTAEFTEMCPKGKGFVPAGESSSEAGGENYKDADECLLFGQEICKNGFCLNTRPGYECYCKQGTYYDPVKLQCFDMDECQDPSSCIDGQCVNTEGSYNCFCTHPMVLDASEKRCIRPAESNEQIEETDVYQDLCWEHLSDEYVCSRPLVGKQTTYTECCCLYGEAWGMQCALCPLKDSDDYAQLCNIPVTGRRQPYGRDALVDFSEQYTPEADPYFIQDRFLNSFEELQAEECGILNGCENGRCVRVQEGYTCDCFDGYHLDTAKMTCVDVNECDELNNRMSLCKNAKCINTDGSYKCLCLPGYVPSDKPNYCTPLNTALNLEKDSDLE
T1 sequence (P01137 30-390 limits assumed, chain 2 of 2): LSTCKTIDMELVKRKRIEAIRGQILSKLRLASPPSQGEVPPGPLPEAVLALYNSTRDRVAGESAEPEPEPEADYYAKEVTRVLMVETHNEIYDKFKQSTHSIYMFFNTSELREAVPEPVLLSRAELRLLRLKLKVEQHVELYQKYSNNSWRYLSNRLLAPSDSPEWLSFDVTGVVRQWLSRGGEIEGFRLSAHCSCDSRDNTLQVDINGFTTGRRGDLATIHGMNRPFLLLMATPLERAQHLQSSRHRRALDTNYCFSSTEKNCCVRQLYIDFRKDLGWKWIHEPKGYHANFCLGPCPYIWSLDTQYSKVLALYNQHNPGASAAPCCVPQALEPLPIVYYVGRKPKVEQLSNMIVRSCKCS
Experiment: BLI (Octet)
measured-metric: pKd
By convention, pKd is the negative base-10 log of a molar concentration.

Qu. Which pKd is listed for Ab27 (antibody, V domains shown) VH: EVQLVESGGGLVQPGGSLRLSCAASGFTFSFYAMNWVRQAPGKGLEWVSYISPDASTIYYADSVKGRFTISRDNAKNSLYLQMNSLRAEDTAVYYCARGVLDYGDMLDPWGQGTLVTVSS VL: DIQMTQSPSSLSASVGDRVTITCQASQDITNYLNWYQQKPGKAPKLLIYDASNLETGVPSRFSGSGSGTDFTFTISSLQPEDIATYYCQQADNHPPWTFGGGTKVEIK ?
Ans. 9.75

Qu. Which pKd is listed for Ab32 (antibody, V domains shown) VH: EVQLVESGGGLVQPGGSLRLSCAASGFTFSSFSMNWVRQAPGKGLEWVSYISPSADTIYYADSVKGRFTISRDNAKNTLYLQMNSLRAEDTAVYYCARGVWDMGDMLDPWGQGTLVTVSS VL: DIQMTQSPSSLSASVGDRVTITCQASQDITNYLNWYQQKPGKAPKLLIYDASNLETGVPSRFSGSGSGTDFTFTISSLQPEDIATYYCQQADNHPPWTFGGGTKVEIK ?
Ans. 9.57

Qu. Which pKd is listed for Ab6 (antibody, V domains shown, Fully human IgG4/kappa) VH: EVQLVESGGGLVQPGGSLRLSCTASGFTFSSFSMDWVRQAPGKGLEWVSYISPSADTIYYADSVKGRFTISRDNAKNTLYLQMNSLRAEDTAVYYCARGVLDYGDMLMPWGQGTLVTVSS VL: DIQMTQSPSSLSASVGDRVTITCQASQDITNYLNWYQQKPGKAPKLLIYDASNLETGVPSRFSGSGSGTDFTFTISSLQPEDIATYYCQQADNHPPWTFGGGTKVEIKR ?
Ans. 9.68
